Biological target: T1, Roquin-1 ROQ domain (UniProt Q4VGL6 171-326)
T1 sequence: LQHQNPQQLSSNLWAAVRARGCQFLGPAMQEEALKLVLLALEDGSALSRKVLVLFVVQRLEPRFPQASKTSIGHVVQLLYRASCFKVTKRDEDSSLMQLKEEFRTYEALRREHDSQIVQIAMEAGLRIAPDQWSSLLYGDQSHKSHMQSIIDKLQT
Test: ITC; n=0.81; ITC at room temperature, RNA titrated into 10-40 uM protein; buffer 20 mM Tris pH 7.0, 150 mM NaCl, 25 uM ZnCl2, 2 mM TCEP, 0.02% azide (stated for Znf); NMR HSQC 50 uM protein, RT, 10% D2O
Conditions: protein: recombinant; tags: His6-thioredoxin, TEV-removable; single-stranded, no imino signals
pKd: −log10 of the molar value.
Readout name: pKd

- Binder: "UUUUAACAUUAUUUU (ssRNA) [LBE (Nfkbiz 3'-UTR 15-mer)]"
  Meas value: 5.44

Data origin: paper PMC6145892
